Give measured liver exposure for each item. Keep answers brief.
Assay: Pharmacokinetics in mice after single oral dosing, blood and liver exposure by LC-MS
Format: in vivo, mice (C57/bl6/J)
Details: single oral dose 20 mg/kg, time point 12 h
Please reply with the bare figure in µM and do not write the unit itself.

Challenge: Kindly indicate its recorded liver exposure. Item: Cc1cc(C)c(CN(Cc2ccc(-c3cccc(S(=O)(=O)CC(=O)O)c3)cc2)Cc2ccc(C(F)(F)F)o2)c(C)c1
Response given: 3.2

Challenge: Kindly indicate its recorded liver exposure. Item: Cc1ccc2c(F)cccc2c1C(=O)N(Cc1ccc(-c2cccc(C(C)(C)C(=O)O)c2)cc1)Cc1ccc(C(F)(F)F)o1
Response given: 43.7

Challenge: Kindly indicate its recorded liver exposure. Item: Cc1ccc2ccccc2c1C(=O)N(Cc1ccc(-c2cc(F)c(CO)c(S(=O)(=O)CC(=O)O)c2)cc1)Cc1ccc(C(F)(F)F)o1
Response given: 4.1

###

Give measured blood/plasma exposure for each item. Keep answers brief.
Experiment: Pharmacokinetics in mice after single oral dosing, blood and liver exposure by LC-MS
Format: in vivo, mice (C57/bl6/J)
Details: single oral dose 20 mg/kg, time point 4 h
Please reply with the bare figure in µM and do not write the unit itself.

Challenge: Kindly indicate its recorded blood/plasma exposure. Item: Cc1ccc(CN(Cc2ccc(-c3cccc(C(C)(C)C(=O)O)c3)cc2)Cc2ccc(C(F)(F)F)o2)c2ccccc12 [24/1]
Response given: 2.25

Challenge: Kindly indicate its recorded blood/plasma exposure. Item: Cc1cc(C)c(CN(Cc2ccc(-c3cccc(S(=O)(=O)CC(=O)O)c3)cc2)Cc2ccc(C(F)(F)F)o2)c(C)c1 [Example 1]
Response given: 0.83

Challenge: Kindly indicate its recorded blood/plasma exposure. Item: Cc1ccc2ccccc2c1C(=O)N(Cc1ccc(-c2cccc(C(C)(C)C(=O)O)c2)cc1)Cc1ccc(C(F)(F)F)o1 [27/26]
Response given: 16

Challenge: Kindly indicate its recorded blood/plasma exposure. Item: Cc1c(CN(Cc2ccc(-c3cccc(C(C)(C)C(=O)O)c3)cc2)Cc2ccc(C(F)(F)F)o2)c2ccccc2n(C)c1=O [27/23]
Response given: 0.15

Challenge: Kindly indicate its recorded blood/plasma exposure. Item: Cc1ccc2ccccc2c1CN(Cc1ccc(-c2cccc(C(C)(C)C(=O)O)c2)cc1)Cc1ccc(C(F)(F)F)o1 [Example 24]
Response given: 0.96

###

Give measured pEC50 for each item. Keep answers brief.
Target: LXRα ligand-binding domain (LBD) (Homo sapiens, UniProt Q13133)
Sequence (Q13133 155-447): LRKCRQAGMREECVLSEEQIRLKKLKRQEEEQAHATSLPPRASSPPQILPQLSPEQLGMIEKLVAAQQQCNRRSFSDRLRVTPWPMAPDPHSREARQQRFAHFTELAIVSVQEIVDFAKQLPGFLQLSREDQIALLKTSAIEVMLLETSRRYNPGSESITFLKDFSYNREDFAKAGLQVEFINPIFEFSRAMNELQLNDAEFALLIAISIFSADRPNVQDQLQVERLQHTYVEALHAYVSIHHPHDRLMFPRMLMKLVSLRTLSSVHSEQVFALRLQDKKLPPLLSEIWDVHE
Experiment: LXR Gal4 reporter transient transfection assay, mammalian two-hybrid, LBD-M2H Gal4α
Conditions: HEK293 cells; inverse agonist unless *
pEC50: −log10 of the molar value.

Challenge: Kindly indicate its recorded pEC50. Item: Cc1ccc2ccccc2c1C(=O)N(Cc1ccc(-c2cc(F)c(CO)c(S(=O)(=O)CC(=O)O)c2)cc1)Cc1ccc(C(F)(F)F)o1 [22/8]
Response given: > 7.00

Challenge: Kindly indicate its recorded pEC50. Item: Cc1ccc2cccnc2c1CN(Cc1ccc(-c2cccc(C(C)(C)C(=O)O)c2)cc1)Cc1ccc(C(F)(F)F)o1 [24/2]
Response given: 6.00 to 7.00

Challenge: Kindly indicate its recorded pEC50. Item: CC(C)(C(=O)O)c1cccc(-c2ccc(CN(Cc3ccc(C(F)(F)F)o3)Cc3c(C#N)ccc4ccccc34)cc2)c1 [27/67]
Response given: > 7.00

Challenge: Kindly indicate its recorded pEC50. Item: CC(C)(C(=O)O)c1cccc(-c2ccc(CN(Cc3ccc(C(F)(F)F)o3)Cc3cccc4nonc34)cc2)c1 [25/1]
Response given: 6.00 to 7.00

Challenge: Kindly indicate its recorded pEC50. Item: Cc1ccc2ccccc2c1CN(Cc1ccc(-c2ccnc(C(C)(C)C(=O)O)c2)cc1)Cc1ccc(C(F)(F)F)o1 [14/3]
Response given: > 7.00

Challenge: Kindly indicate its recorded pEC50. Item: Cc1ccc2ccccc2c1C(=O)N(Cc1ccc(-c2cccc(S(=O)(=O)CC(=O)O)c2)cc1)Cc1ccc(C(F)(F)F)o1 [Example 9]
Response given: 6.00 to 7.00

Challenge: Kindly indicate its recorded pEC50. Item: Cc1cc(C)c(CN(Cc2ccc(-c3cccc(S(=O)(=O)CC(=O)O)c3)cc2)Cc2ccc(C(F)(F)F)o2)c(C)c1 [Example 1]
Response given: 5.00 to 6.00

###

Target: LXRβ full length (FL) (Homo sapiens, UniProt P55055, INS174Q)
Construct: the full length (FL) proteins of LXRα (amino acids 1-447); NP005684; NP009052
Sequence (P55055 with tags, fused parts or gaps INS174Q): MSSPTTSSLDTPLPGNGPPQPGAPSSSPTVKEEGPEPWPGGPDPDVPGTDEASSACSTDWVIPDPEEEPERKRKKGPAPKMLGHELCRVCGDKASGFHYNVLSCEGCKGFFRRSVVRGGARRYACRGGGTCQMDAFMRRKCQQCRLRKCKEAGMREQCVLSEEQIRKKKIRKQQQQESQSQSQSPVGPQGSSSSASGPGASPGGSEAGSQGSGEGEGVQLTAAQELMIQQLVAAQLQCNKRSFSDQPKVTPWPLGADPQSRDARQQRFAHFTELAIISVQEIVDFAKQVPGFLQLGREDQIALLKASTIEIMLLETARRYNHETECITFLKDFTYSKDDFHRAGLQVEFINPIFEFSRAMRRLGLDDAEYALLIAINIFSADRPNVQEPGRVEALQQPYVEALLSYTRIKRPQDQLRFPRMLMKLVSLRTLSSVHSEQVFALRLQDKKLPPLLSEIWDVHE
Experiment: LXR Gal4 reporter transient transfection assay, mammalian two-hybrid, FL-M2H Gal4β
Conditions: HEK293 cells; inverse agonist unless *
pEC50: −log10 of the molar value.
measured.endpoint: pEC50

Challenge: Kindly indicate its recorded pEC50. Item: Cc1ccc2ccccc2c1C(=O)N(Cc1ccc(-c2cc(F)cc(C3(C(=O)O)CC3)c2)cc1)Cc1ccc(C(F)(F)F)o1
Response given: > 7.00

Challenge: Kindly indicate its recorded pEC50. Item: COc1ccc2ccccc2c1CN(Cc1ccc(-c2cccc(S(=O)(=O)CC(=O)O)c2)cc1)Cc1ccc(C(F)(F)F)o1
Response given: 6.00 to 7.00

Challenge: Kindly indicate its recorded pEC50. Item: Cc1cc(C)c(CN(Cc2ccc(-c3cccc(S(=O)(=O)CC(=O)O)c3)cc2)C(C)c2ccc(C(F)(F)F)o2)c(C)c1 (stereo not shown)
Response given: 6.00 to 7.00

Challenge: Kindly indicate its recorded pEC50. Item: Cc1ccc2ccccc2c1C(=O)N(Cc1ccc(-c2cncc(C(C)(C)C(=O)O)c2)cc1)Cc1ccc(C(F)(F)F)o1
Response given: > 7.00

Challenge: Kindly indicate its recorded pEC50. Item: Cc1ccc2ccccc2c1CN(Cc1ccc(-c2cc(F)c(CO)c(S(=O)(=O)CC(=O)O)c2)cc1)Cc1ccc(C(F)(F)F)o1
Response given: 6.00 to 7.00

Challenge: Kindly indicate its recorded pEC50. Item: Cc1cc(Br)cc(C)c1C(=O)N(Cc1ccc(-c2cccc(C(C)(C)C(=O)O)c2)cc1)Cc1ccc(C(F)(F)F)o1
Response given: > 7.00

Challenge: Kindly indicate its recorded pEC50. Item: COc1cc(-c2cc(F)c(CO)c(S(=O)(=O)CC(=O)O)c2)ccc1CN(Cc1ccc(C(F)(F)F)o1)Cc1c(C)ccc2ccccc12
Response given: > 7.00

###

Experiment: Short term HFD mouse model: liver and plasma exposure after multiple oral dosing
Format: in vivo, mice (C57BL/6J)
Conditions: C57BL/6J, plasma, HFD mice, three oral doses of 3 mg/kg each, 4 h after final dose, read-out: plasma exposure, 4 h
measured.endpoint: concentration at 4 h (nM)
Please reply with the bare figure in nM and do not write the unit itself.

Challenge: Kindly indicate its recorded concentration at 4 h. Item: Cc1ccc2ccccc2c1C(=O)N(Cc1ccc(-c2cccc(C(C)(O)C(=O)O)c2)cc1)Cc1ccc(C(F)(F)F)o1 (stereo not shown) [27/10]
Response given: 47

###

Assay: Short term HFD mouse model: liver and plasma exposure after multiple oral dosing
Assay type: in vivo, mice (C57BL/6J)
Details: C57BL/6J, plasma, HFD mice, three oral doses of 20 mg/kg each, 4 h after final dose, read-out: plasma exposure, 4 h
measured.endpoint: concentration at 4 h (nM)
Please reply with the bare figure in nM and do not write the unit itself.

Challenge: Kindly indicate its recorded concentration at 4 h. Item: Cc1ccc2ccccc2c1C(=O)N(Cc1ccc(C(F)(F)F)o1)Cc1ccc(-c2cccc(C(C)(C)C(=O)O)c2)cc1C#N [27/7]
Response given: 281

Challenge: Kindly indicate its recorded concentration at 4 h. Item: CC(C)(C(=O)O)c1cccc(-c2ccc(CN(Cc3ccc(C(F)(F)F)o3)C(=O)c3c4ccccc4cc4ccccc34)cc2)c1 [27/47]
Response given: 1070

Challenge: Kindly indicate its recorded concentration at 4 h. Item: Cc1ccc2ccccc2c1C(=O)N(Cc1ccc(-c2cccc(S(=O)(=O)CC(=O)O)c2)cc1)Cc1ccc(C(F)(F)F)o1 [Example 9]
Response given: 134

Challenge: Kindly indicate its recorded concentration at 4 h. Item: Cc1ccc2ccccc2c1CN(Cc1ccc(-c2cccc(C(C)(C)C(=O)O)c2)cc1)Cc1ccc(C(F)(F)F)o1 [Example 24]
Response given: 3520
